Recorded values, source patent US8906909B2.

# System: MiaPaca1 cells
# Assay Explanation: Cell proliferation assay Method B, MiaPaca1
# Assay type: cell-based
# Test Parameters: Pancreas, 72 hours, read-out: antiproliferative activity IC50, MiaPaca1
Assay Metric: IC50

Quickly give me recorded IC50 for CS(=O)(=O)N1CCN(Cc2cc3nc(-c4cccc5[nH]ncc45)nc(N4CCOCC4)c3s2)CC1 [GDC-0941, reference compound] > 10 µM

---

# Test system: MEG-01 cells
# Assay Explanation: Cell proliferation assay Method B, MEG-01
# Assay type: cell-based
# Test Parameters: Homo sapiens, CML, 72 hours, read-out: antiproliferative activity IC50, MEG-01
Assay Metric: IC50

| Compound | Assay System | IC50 |
| --- | --- | --- |
| COc1ccc(-c2nc(N3CCOCC3)c3sc(CN(C)c4ncc(C(=O)NO)cn4)cc3n2)cn1 [Compound 236] | MEG-01 cells | 10 to 100 nM |

Quickly give me recorded IC50 for CS(=O)(=O)N1CCN(Cc2cc3nc(-c4cccc5[nH]ncc45)nc(N4CCOCC4)c3s2)CC1 [GDC-0941, reference compound] > 10000 nM

Quickly give me recorded IC50 for CN(Cc1cc2nc(-c3ccc(N)cc3)nc(N3CCOCC3)c2s1)c1ncc(C(=O)NO)cn1 [Compound 150] 10 to 100 nM

---

Below, each of the molecules is paired with its reported melting point value.

Consider the following illustrative entries.
| Given Smiles | melting point |
| --- | --- |
| CCCCN(Cc1cc2nc(-c3cccc4[nH]ncc34)nc(N3CCOCC3)c2s1)c1ncc(C(=O)NO)cn1 | 234 to 236 °C |
| O=C(NO)c1cnc(N(CCO)Cc2cc3nc(-c4cccc5[nH]ncc45)nc(N4CCOCC4)c3s2)nc1 | 190 to 194 °C |
| CN(C)CCOc1ccc(-c2nc(N3CCOCC3)c3sc(CN(C)c4ncc(C(=O)NO)cn4)cc3n2)cn1 | 140 to 143 °C |

Turning to the following molecule.
Quickly give me recorded melting point for Cc1ccc(-c2nc(N3CCOCC3)c3sc(CN(C)c4ncc(C(=O)NO)cn4)cc3n2)cc1 170 to 172 °C

---

# Test system: HCC1937 cells
# Assay Explanation: Cell proliferation assay Method B, HCC1937
# Format: cell-based
# Test Parameters: Homo sapiens, 72 hours, 0.5% fetal bovine serum, CellTiter-Glo, read-out: antiproliferative activity IC50, HCC1937
Below, each of the molecules is paired with its reported IC50 value.

| Given Smiles | Assay System | IC50 |
| --- | --- | --- |
| CN(Cc1cc2nc(-c3cccc4[nH]ncc34)nc(N3CCOCC3)c2s1)c1ncc(C(=O)NO)cn1 | HCC1937 cells | 10 to 100 nM |
| CN(Cc1cc2nc(-c3cnc(N)nc3)nc(N3CCOCC3)c2s1)c1ncc(C(=O)NO)cn1 | HCC1937 cells | 10 to 100 nM |
| CN(Cc1cc2nc(-c3ccc(N)nc3)nc(N3CCOCC3)c2s1)c1ncc(C(=O)NO)cn1 | HCC1937 cells | 10 to 100 nM |

State recorded IC50 with HCC1937 cells, entry CN(Cc1cc2nc(-c3cccc(O)c3)nc(N3CCOCC3)c2s1)c1ncc(C(=O)NO)cn1 , no comment. 100 to 1000 nM
